Biological target: T1, human c-Kit, GNNK- isoform, expressed on SEM cells (human, UniProt P10721 26-976)
T1 chain: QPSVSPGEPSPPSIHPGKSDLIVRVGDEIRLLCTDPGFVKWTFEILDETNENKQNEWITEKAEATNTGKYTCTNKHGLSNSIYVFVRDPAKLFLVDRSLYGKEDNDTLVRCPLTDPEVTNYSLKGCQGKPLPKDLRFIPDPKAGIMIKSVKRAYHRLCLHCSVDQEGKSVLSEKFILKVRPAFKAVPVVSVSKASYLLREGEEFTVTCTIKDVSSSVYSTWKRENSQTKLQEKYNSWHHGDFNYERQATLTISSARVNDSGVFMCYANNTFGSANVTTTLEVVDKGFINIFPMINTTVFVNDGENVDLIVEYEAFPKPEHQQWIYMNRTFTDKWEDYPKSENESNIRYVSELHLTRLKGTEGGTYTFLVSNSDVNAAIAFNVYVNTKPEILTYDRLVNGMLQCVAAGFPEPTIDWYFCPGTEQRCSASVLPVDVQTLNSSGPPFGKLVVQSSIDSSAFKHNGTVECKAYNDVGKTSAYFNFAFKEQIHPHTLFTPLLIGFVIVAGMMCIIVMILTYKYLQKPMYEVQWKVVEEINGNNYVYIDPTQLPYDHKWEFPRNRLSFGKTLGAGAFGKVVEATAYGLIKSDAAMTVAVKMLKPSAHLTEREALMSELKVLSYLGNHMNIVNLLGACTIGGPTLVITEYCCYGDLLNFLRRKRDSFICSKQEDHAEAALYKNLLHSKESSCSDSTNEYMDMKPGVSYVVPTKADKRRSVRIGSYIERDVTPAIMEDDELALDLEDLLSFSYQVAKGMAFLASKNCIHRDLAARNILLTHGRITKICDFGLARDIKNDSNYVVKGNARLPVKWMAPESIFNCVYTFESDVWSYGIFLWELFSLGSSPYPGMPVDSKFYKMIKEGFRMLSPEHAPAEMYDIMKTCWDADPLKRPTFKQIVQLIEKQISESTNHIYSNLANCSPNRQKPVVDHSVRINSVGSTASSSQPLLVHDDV
Assay: flow cytometry, antibody supernatant on SEM cells expressing human c-Kit GNNK-, PE secondary
Property: fold over background MFI signal (fold over background)
Give your result in fold over background as a bare value.

Completed entries (count: 4):
anti-c-Kit single domain antibody Clone ID # 407921 (VHH, also called F06 family) VHH: EVQLLESGGGLVQPGGSLRLSCAASGFTFDSYAMSWVRQAPGKGLEWVSAISVRGGSTYYADSVKGRFTISRDNSKNTLYLQMNSLRAEDTAVYSCATGYDPSGHYYGGFDYRGQGTLVTVSS; 1750
anti-c-Kit single domain antibody Clone ID # 408366 (VHH, also called F06 family) VHH: EVQLLESGGGLVQPGGSLRLSCAASGLTISTYAMSWVRQAPGKGLEWVSAISTGGSSTYYADSVKGRFTISRDNSKNTLYLQMNSLRAEDTAVYYCATGYDSSGHYYGGFDYRGQGTLVTVSS; 1760
anti-c-Kit single domain antibody Clone ID # 407922 (VHH, also called F06 family) VHH: EVQLLESGGGLVQPGGSLRLSCAASGLTISSYAMSWVRQAPGKGLEWVSAISTGGSRTYYADSVKGRFTISRDNSKNTLYLQMNSLRAEDTAVYFCATGYDSSGHYYGGFDYRGQGTLVTVSS; 1740
anti-c-Kit single domain antibody Clone ID # 408198 (VHH, also called F18 family) VHH: QLQLQESGPGLVKPSETLSLTCTVSGGSISSSSYYWGWIRQPPGKGLEWIGSIDYNGGTYNNPSLKSRVTISVDTSKNQFSLKLSYVTAADTAVYYCARQNPRRYASGASDYRGQGTLVTVSS; 103

Read the next record carefully.
Supply reported fold over background MFI signal belonging to this binder: anti-c-Kit single domain antibody Clone ID # 408389 (VHH, also called F06 family) VHH: EVQLLESGGGLVQPGGSLRLSCAASGFTFDSYAMSWVRQAPGEGLEWVSAISTGGGSTYYADSVKGRFTISRDNSKNMLFLQMNSLRAEDTAVYSCATGYDSSGYYYGGFDYRGQGTLVTVSS
1790

Each recorded value in this set is attributed to patent US20250367237A1.
